- experimentalSystem: m^7GTP-CBC (Homo sapiens, UniProt P52298+Q09161)
- Construct: 6-histidine tag (pETM30 vector) (N, cleaved yes); made in house; host or cells: CBP20 in E. coli Rosetta 2; CBP80ΔNLS in High Five insect cells; heterodimer reconstituted on Ni-sepharose
- Sequence (Q09161 20-790): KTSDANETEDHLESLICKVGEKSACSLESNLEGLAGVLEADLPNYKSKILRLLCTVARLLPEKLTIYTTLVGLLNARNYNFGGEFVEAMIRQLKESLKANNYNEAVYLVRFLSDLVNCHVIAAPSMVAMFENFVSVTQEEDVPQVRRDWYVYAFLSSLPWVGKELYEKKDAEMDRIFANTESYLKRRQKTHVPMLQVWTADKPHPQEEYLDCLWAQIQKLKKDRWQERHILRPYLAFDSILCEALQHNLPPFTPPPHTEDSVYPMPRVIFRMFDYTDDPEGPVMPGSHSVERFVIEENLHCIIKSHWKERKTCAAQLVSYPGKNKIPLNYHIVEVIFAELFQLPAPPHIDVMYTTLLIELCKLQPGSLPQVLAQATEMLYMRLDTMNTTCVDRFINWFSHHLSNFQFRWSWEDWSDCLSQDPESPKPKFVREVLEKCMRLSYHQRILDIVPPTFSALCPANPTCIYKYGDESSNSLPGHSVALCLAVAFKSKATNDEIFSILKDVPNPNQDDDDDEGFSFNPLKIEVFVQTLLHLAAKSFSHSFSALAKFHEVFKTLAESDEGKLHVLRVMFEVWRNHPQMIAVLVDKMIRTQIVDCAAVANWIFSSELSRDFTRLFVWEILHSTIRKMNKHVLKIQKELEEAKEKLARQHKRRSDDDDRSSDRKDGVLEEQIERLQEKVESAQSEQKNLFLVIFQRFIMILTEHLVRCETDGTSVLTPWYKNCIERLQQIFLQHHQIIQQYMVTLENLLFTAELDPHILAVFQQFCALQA
- Sequence (P52298 1-156): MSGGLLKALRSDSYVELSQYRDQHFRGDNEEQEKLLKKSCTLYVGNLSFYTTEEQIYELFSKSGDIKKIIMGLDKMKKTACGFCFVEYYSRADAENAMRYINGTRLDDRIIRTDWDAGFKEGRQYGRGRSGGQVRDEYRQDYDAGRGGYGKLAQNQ
- experiment: ITC, binding to CBC in the presence of the cap analogue m^7GTP
- conditionLabel: ITC, 25 °C, 20 mM HEPES, 120 mM NaCl, 2 mM TCEP, pH 7.8; CBC bound to m^7GTP; mean ± SD of at least two independent experiments; SD
Ends that are not written are not given here.
Hi there, I'd appreciate the recorded Kd for every entry that follows.

Recorded result, ARS2 827–871: human ARS2 isoform 4 residues 827–871, E. coli expressed construct (APYGAGRGNYDAFRGQGGYPGKPRNRMVRGDPRAIVEYRDLDAPD; isoform 4; UniProt Q9BXP5 827-871, looked up, fragment) , Kd: 1000 nM

Recorded result, RNRMVRGDPRAIVEYRDLDAPDDVDFF [ARS2 845–871] , Kd: 1100 nM

Recorded result, ARS2 827–871 F871D: ARS2 827–871 construct with F871D mutation (GRGNYDAFRGQGGYPGKPRNRMVRGDPRAIVEYRDLDAPDDVDFD) , Kd: 1800 nM

Recorded result, DKRTQIVYSDDVYKENLVDGF [NELF-E 360–380] , Kd: 3300 nM
